assay: Bioavailability as maximal plasma concentration in rats after 10 mg/kg oral dose; format: ADME, organism-based; parameters: dose 10 mg/kg, route oral; settings: rat
Provide the recorded Cmax for the entries that follow.
Please give a number only; it is taken to be in nM.

O=C1N[C@H](Cc2ccccc2)[C@H](O)[C@@H](O)[C@@H](Cc2ccccc2)N1Cc1cccc(-c2cc[nH]n2)c1 yielded Cmax of 780

COC(=O)c1cccc(CN2C(=O)N(Cc3cccc(-c4cc[nH]n4)c3)[C@H](Cc3ccccc3)[C@H](O)[C@@H](O)[C@H]2Cc2ccccc2)c1 yielded Cmax of 320

O=Cc1cccc(CN2C(=O)N(Cc3cccc(C=O)c3)[C@H](Cc3ccccc3)[C@H](O)[C@@H](O)[C@H]2Cc2ccccc2)c1 yielded Cmax of 260

CC(=O)c1cccc(CN2C(=O)N(Cc3cccc(C(C)=O)c3)[C@H](Cc3ccccc3)[C@H](O)[C@@H](O)[C@H]2Cc2ccccc2)c1 yielded Cmax of 500

O=C1N(Cc2cccc(-c3cc[nH]n3)c2)[C@H](Cc2ccccc2)[C@H](O)[C@@H](O)[C@@H](Cc2ccccc2)N1Cc1cccc(-c2cc[nH]n2)c1 yielded Cmax of 68
